The measurements presented in this section are drawn from patent US20220040297A1.

# subject-of-test: CD3ε homodimer protein (human, UniProt P07766 23-126, limits assumed)
# Sequence (P07766 23-126 limits assumed): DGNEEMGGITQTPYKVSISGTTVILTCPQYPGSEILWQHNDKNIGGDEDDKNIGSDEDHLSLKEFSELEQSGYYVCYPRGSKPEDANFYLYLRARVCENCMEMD
# test-protocol: SPR, immobilized CD3ε homodimer;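 also: biacore T200 surface plasmon resonance at 25 °C, antibody variants flowed as analytes over amine-coupled CD3ε homodimer on a CM4 chip, variant binding amount divided by that of GLS3000 antibody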
measured-parameter: ratio of amounts bound (vs GLS3000)
Lab note: record the figure alone, no unit after it.

Known ratio of amounts bound (vs GLS3000) results, listed for orientation:
GLS3000 Q93P (antibody, name in Kabat numbering, V domains shown, one-arm format as m2) VH: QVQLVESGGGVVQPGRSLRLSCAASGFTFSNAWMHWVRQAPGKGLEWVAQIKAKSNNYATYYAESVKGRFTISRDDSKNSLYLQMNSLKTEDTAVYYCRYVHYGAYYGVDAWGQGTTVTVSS VL: DIVMTQSPLSLPVTPGEPASISCRSSQSLVHSNRNTYLHWYQQKPGQAPRLLIYKVSNRFSGVPDRFSGSGSGTDFTLKISRVEAEDVGVYYCGQGTPVPYTFGQGTKLEIK    0.25
GLS3000 G89H (antibody, name in Kabat numbering, V domains shown, one-arm format as m2) VH: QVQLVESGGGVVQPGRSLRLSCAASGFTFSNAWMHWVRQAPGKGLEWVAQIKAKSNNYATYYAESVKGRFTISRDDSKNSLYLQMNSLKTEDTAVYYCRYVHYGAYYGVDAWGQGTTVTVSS VL: DIVMTQSPLSLPVTPGEPASISCRSSQSLVHSNRNTYLHWYQQKPGQAPRLLIYKVSNRFSGVPDRFSGSGSGTDFTLKISRVEAEDVGVYYCHQGTQVPYTFGQGTKLEIK    0.7

Next up:
[ask] Look up ratio of amounts bound (vs GLS3000) of GLS3000 S56I (antibody, name in Kabat numbering, V domains shown, one-arm format as m2) VH: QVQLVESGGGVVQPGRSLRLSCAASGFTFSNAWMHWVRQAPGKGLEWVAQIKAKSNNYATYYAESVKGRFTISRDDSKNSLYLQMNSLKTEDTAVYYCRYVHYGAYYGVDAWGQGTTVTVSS VL: DIVMTQSPLSLPVTPGEPASISCRSSQSLVHSNRNTYLHWYQQKPGQAPRLLIYKVSNRFIGVPDRFSGSGSGTDFTLKISRVEAEDVGVYYCGQGTQVPYTFGQGTKLEIK and report it.
[reply] 0.99
